Sourced from patent US20220389003A1

# tested_target: PARG (Homo sapiens, UniProt Q86W56)
# Sequence (Q86W56 whole entry): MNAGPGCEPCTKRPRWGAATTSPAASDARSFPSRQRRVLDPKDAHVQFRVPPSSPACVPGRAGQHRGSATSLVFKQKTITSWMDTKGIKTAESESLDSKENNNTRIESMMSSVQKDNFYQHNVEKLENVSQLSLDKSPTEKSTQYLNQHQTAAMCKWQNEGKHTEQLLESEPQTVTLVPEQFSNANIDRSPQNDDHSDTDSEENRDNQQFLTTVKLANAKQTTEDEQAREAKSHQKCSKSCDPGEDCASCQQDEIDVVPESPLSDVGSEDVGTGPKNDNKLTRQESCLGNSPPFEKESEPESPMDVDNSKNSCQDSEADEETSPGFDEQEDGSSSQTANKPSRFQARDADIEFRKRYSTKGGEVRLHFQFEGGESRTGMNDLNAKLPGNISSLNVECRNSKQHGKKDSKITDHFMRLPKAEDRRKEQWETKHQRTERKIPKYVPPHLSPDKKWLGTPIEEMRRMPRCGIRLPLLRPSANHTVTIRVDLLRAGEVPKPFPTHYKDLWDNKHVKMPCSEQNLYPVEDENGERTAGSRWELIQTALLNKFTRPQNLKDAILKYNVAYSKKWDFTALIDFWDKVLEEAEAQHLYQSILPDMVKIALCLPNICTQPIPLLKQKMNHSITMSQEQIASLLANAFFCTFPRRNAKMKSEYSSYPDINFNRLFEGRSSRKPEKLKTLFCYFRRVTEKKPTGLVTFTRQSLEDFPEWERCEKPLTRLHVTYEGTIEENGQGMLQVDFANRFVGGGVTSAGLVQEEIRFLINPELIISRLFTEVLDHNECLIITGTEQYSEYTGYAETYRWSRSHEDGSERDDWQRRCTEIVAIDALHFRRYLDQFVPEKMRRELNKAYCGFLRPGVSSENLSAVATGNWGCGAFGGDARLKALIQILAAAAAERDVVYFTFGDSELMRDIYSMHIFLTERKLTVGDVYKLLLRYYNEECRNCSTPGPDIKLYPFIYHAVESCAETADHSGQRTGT
# test_summary: Inhibition of PARG enzymatic assay (TR-FRET enzymatic IC50 assay)
# Assay type: biochemical
# Design: purchased Peak Proteins
# run_conditions: hPARG 250 pM, biotinylated-PARylated PARP substrate 30 nM
Attribute: IC50

>>> observed_measurement("CC(C)C(=O)N1CCN(c2cc(S(=O)(=O)NC3(C#N)CC3)cc3c2cnn3-c2nnc(C(F)F)s2)C[C@@H]1C")
"≤ 100 nM"
>>> observed_measurement("N#CC1(NS(=O)(=O)c2cc(N3CCCOCC3)c3cnn(-c4nnc(C(F)F)s4)c3c2)CC1")
"1000 to 10000 nM"
>>> observed_measurement("CN(C)C(=O)N1CCN(c2cc(S(=O)(=O)NC3(C#N)CC3)cc3c2c(Cl)nn3-c2nnc(C(F)F)s2)CC1")
"300 to 1000 nM"
>>> observed_measurement("Cn1ccnc1N1CCN(c2cc(S(=O)(=O)NC3(C#N)CC3)cc3c2cnn3-c2nnc(C(F)F)s2)CC1")
"≤ 100 nM"
>>> observed_measurement("N#CC1(NS(=O)(=O)c2cc(C3=CCC4(CC3)COC4)c3cnn(-c4nnc(C(F)F)s4)c3c2)CC1")
"300 to 1000 nM"

Specify measured IC50 for `N#CC1(NS(=O)(=O)c2cc(N3CCN(C(=O)C4CCCC4)CC3)c3cnn(-c4nnc(C(F)F)s4)c3c2)CC1` .
≤ 100 nM

Specify measured IC50 for `N#CC1(NS(=O)(=O)c2cc(-c3cccnc3)c3cnn(-c4nnc(C(F)F)s4)c3c2)CC1` .
300 to 1000 nM

Specify measured IC50 for `CN(CC(F)(F)F)C(=O)N1CCN(c2cc(S(=O)(=O)NC3(C#N)CC3)cc3c2cnn3-c2nnc(C(F)F)s2)CC1` .
≤ 100 nM

Specify measured IC50 for `CNC(=O)C1CCN(c2cc(S(=O)(=O)NC3(C#N)CC3)cc3c2cnn3-c2nnc(C(F)F)s2)CC1` .
≤ 100 nM

Specify measured IC50 for `N#CC1(NS(=O)(=O)c2cc(N3CCC(CO)CC3)c3cnn(-c4nnc(C(F)F)s4)c3c2)CC1` .
≤ 100 nM

Specify measured IC50 for `COc1nccc(-c2cc(S(=O)(=O)NC3(C(N)=O)CC3)cc3c2cnn3-c2nnc(C(F)F)s2)n1` .
300 to 1000 nM

Specify measured IC50 for CN1CC2CN(c3cc(S(=O)(=O)NC4(C#N)CC4)cc4c3cnn4-c3nnc(C(F)F)s3)CCN2C1=O (single isomer, unassigned) [Example 72] .
≤ 100 nM

Specify measured IC50 for `N#CC1(NS(=O)(=O)c2cc(N3CCC(F)CC3)c3cnn(-c4nnc(C(F)F)s4)c3c2)CC1` .
300 to 1000 nM

Specify measured IC50 for `N#CC1(NS(=O)(=O)c2cc(C3CC3)c3cnn(-c4nnc(C(F)F)s4)c3c2)CC1` .
1000 to 10000 nM

Specify measured IC50 for CN(C)C(=O)C1CCN(c2cc(S(=O)(=O)NC3(C#N)CC3)cc3c2cnn3-c2nnc(C(F)F)s2)C1 (centres unmarked) .
100 to 300 nM

Specify measured IC50 for `CNC(=O)N1CCN(c2cc(S(=O)(=O)NC3(C#N)CC3)cc3c2cnn3-c2nnc(C(F)F)s2)CC1` .
≤ 100 nM

Specify measured IC50 for `C[C@H]1CN(c2cc(S(=O)(=O)NC3(C#N)CC3)cc3c2cnn3-c2nnc(C(F)F)s2)CCO1` .
100 to 300 nM

====

# tested_target: PARG (Homo sapiens, UniProt Q86W56)
# test_summary: Inhibition of PARG enzymatic assay (TR-FRET enzymatic IC50 assay)
# Assay type: biochemical
# Set-up: purchased Peak Proteins
# run_conditions: hPARG 250 pM, biotinylated-PARylated PARP substrate 30 nM
measured_metric: IC50

>>> observed_measurement("N#CC1(NS(=O)(=O)c2cc(N3CCC4(COC4)C3)c3cnn(-c4nnc(C(F)F)s4)c3c2)CC1 [Example 34]")
"300 to 1000 nM"
>>> observed_measurement("CN(C)C(=O)C1CN(c2cc(S(=O)(=O)NC3(C#N)CC3)cc3c2cnn3-c2nnc(C(F)F)s2)C1 [Example 55]")
"300 to 1000 nM"
>>> observed_measurement("CC1(NS(=O)(=O)c2cc(N3CCC4(CC3)COC4)c3cnn(-c4nnc(C(F)F)s4)c3c2)CC1 [Example 23]")
"≤ 100 nM"
>>> observed_measurement("N#CC1(NS(=O)(=O)c2cc(N3CCC4(CC3)COC4)c3c(Cl)nn(-c4nnc(C(F)F)s4)c3c2)CC1 [Example 114]")
"1000 to 10000 nM"
>>> observed_measurement("C[C@@H]1CN(c2cc(S(=O)(=O)NC3(C#N)CC3)cc3c2cnn3-c2nnc(C(F)F)s2)CCN1C(=O)C1CCN(CC(F)F)CC1 [Example 106]")
"≤ 100 nM"

Specify measured IC50 for C[C@@H]1CN(c2cc(S(=O)(=O)NC3(C#N)CC3)cc3c2cnn3-c2nnc(C(F)F)s2)CCN1C(=O)C1(C)CC1 [Example 108] .
≤ 100 nM

Specify measured IC50 for CN(C)C(=O)c1cccc(-c2cc(S(=O)(=O)NC3(C#N)CC3)cc3c2cnn3-c2nnc(C(F)F)s2)c1 [Example 4] .
300 to 1000 nM

Specify measured IC50 for N#CC1(NS(=O)(=O)c2cc(N3CCN(c4ccccn4)CC3)c3cnn(-c4nnc(C(F)F)s4)c3c2)CC1 [Example 93] .
1000 to 10000 nM

Specify measured IC50 for N#CC1(NS(=O)(=O)c2cc(N3CC4(COC4)C3)c3cnn(-c4nnc(C(F)F)s4)c3c2)CC1 [Example 45] .
100 to 300 nM

Specify measured IC50 for CN1CCC2(CCN(c3cc(S(=O)(=O)NC4(C#N)CC4)cc4c3cnn4-c3nnc(C(F)F)s3)CC2)C1 [Example 46] .
100 to 300 nM

====

# tested_target: PARG (Homo sapiens)
# test_summary: Inhibition of PARG enzymatic assay (TR-FRET enzymatic IC50 assay)
# Type: biochemical
# Set-up: purchased Peak Proteins
# run_conditions: hPARG 250 pM, biotinylated-PARylated PARP substrate 30 nM
pIC50: −log10 of the molar value.
Attribute: pIC50

>>> observed_measurement("N#CC1(NS(=O)(=O)c2cc(-c3ccncc3)c3cnn(-c4nnc(C(F)F)s4)c3c2)CC1")
"6.52 to 7.00"
>>> observed_measurement("N#CC1(NS(=O)(=O)c2cc(N3CCN(C(=O)c4ccccc4)CC3)c3cnn(-c4nnc(C(F)F)s4)c3c2)CC1")
"≥ 7.00"
>>> observed_measurement("CC1(C(=O)N2CCN(c3cc(S(=O)(=O)NC4(C#N)CC4)cc4c3cnn4-c3nnc(C(F)F)s3)CC2)CCC1")
"≥ 7.00"
>>> observed_measurement("CN(C)C(=O)N1CCN(c2cc(S(=O)(=O)NC3(C)CC3)cc3c2cnn3-c2nnc(C(F)F)s2)CC1")
"≥ 7.00"
>>> observed_measurement("Cc1cccnc1N1CCN(c2cc(S(=O)(=O)NC3(C#N)CC3)cc3c2cnn3-c2nnc(C(F)F)s2)CC1")
"6.00 to 6.52"
>>> observed_measurement("CN1CCC(C(=O)N2CCN(c3cc(S(=O)(=O)NC4(C#N)CC4)cc4c3cnn4-c3nnc(C(F)F)s3)CC2)CC1")
"≥ 7.00"
>>> observed_measurement("CC(C)(C)C(=O)N1CCN(c2cc(S(=O)(=O)NC3(C#N)CC3)cc3c2cnn3-c2nnc(C(F)F)s2)CC1")
"≥ 7.00"
>>> observed_measurement("CCC(C)C(=O)N1CCN(c2cc(S(=O)(=O)NC3(C#N)CC3)cc3c2cnn3-c2nnc(C(F)F)s2)C[C@H]1C (some centres unmarked)")
"≥ 7.00"
>>> observed_measurement("N#CC1(NS(=O)(=O)c2cc(N3CCN4C(=O)OC[C@H]4C3)c3cnn(-c4nnc(C(F)F)s4)c3c2)CC1")
"≥ 7.00"
>>> observed_measurement("CN1CCC[C@@H]1C(=O)N1CCN(c2cc(S(=O)(=O)NC3(C#N)CC3)cc3c2cnn3-c2nnc(C(F)F)s2)CC1")
"≥ 7.00"

Switching to the query record.
Specify measured pIC50 for `COC(=O)N1CCN(c2cc(S(=O)(=O)NC3(C#N)CC3)cc3c2cnn3-c2nnc(C(F)F)s2)CC1` .
≥ 7.00

====

# tested_target: PARG (Homo sapiens, UniProt Q86W56)
# test_summary: Inhibition of PARG cellular assay (PAR foci in HeLa cells after MMS);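 note: IC50 from mean nuclear PAR foci intensity not percent-positive cells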
# Format: cell-based
# Parameters: endogenous in cells; host or cells: HeLa
# run_conditions: compound 1 h then MMS 1 h
pIC50: −log10 of the molar value.
measured_metric: pIC50

Use the examples below as a reference point.
>>> observed_measurement("N#CC1(NS(=O)(=O)c2cc(N3CCOCC3)c3cnn(-c4nnc(C(F)F)s4)c3c2)CC1")
"6.00 to 6.52"
>>> observed_measurement("CN(CC(F)F)C(=O)N1CCN(c2cc(S(=O)(=O)NC3(C#N)CC3)cc3c2cnn3-c2nnc(C(F)F)s2)CC1")
"≥ 7.00"
>>> observed_measurement("CC(C)NS(=O)(=O)c1cc(N2CCN(C(=O)C(C)C)CC2)c2cnn(-c3nnc(C(F)F)s3)c2c1")
"5.00 to 6.00"

Specify measured pIC50 for `CC(C)C(=O)N1C2CC1CN(c1cc(S(=O)(=O)NC3(C#N)CC3)cc3c1cnn3-c1nnc(C(F)F)s1)C2` .
5.00 to 6.00

Specify measured pIC50 for `N#CC1(NS(=O)(=O)c2cc(N3CCN(c4cccnc4)CC3)c3cnn(-c4nnc(C(F)F)s4)c3c2)CC1` .
6.00 to 6.52

Specify measured pIC50 for `CC(C)C(=O)N1CCN(c2cc(S(=O)(=O)NC3(C#N)CC3)cc3c2cnn3-c2nnc(C(F)F)s2)CC1` .
≥ 7.00

Specify measured pIC50 for `CN(CC(F)(F)F)C(=O)N1CCN(c2cc(S(=O)(=O)NC3(C#N)CC3)cc3c2cnn3-c2nnc(C(F)F)s2)CC1` .
≥ 7.00
